Exercise: state measured abundance fitness for each of the variants provided.
B1: Gamma-crystallin S, residues 96 to 176; numbered along this chain, P22914 (parent)
chain: IQIFEKGDFSGQMYETTEDCPSIMEQFHMREIHSCKVLEGVWIFYELPNYRGRQYLLDKKEYRKPIDWGAASPAVQSFRRI

variants of: B1; assay: abundance fitness (aPCA) (normalised: wild type 0, dead -1); higher = more abundant; growth selection in yeast, the domain comes from the species named; settings: Homo sapiens
The reply should be a number, written without any unit.

# abundance fitness of K59M = -0.136

# abundance fitness of V37T = 0.004

# abundance fitness of P21K = -0.016

# abundance fitness of A74L = 0.113

# abundance fitness of S34T = -0.601

# abundance fitness of P73T = -0.082

# abundance fitness of T16V = -0.035

# abundance fitness of Y50K = -0.884

# abundance fitness of L38A = 0.032

# abundance fitness of S34A = -0.004

# abundance fitness of P48M = -0.193

# abundance fitness of L47Q = -0.113

# abundance fitness of G11L = -0.137

# abundance fitness of I3K = -1.12

# abundance fitness of V41Y = -0.162

# abundance fitness of I43P = -1.1

# abundance fitness of F44M = 0.064

# abundance fitness of W42K = -0.787

# abundance fitness of Y14H = 0.034

# abundance fitness of F44W = -0.141

# abundance fitness of V75G = 0.052

# abundance fitness of K64D = -0.118
